The values you see were collected from ChEMBL document CHEMBL3232873.

Molecular target: Kappa-type opioid receptor (Homo sapiens)
Experiment: Agonist activity at human kappa opioid receptor expressed in rat C6 cells assessed as stimulation of [35S]-GTPgammaS binding after 1 hr by GF/C filters relative to control
Type: functional, cell-based
Activity calls are given as the source filed them. The rule behind the calls is not given here. *1 amine or outer side, *2 acyl side, *3 side chain or, on linkers, in order; H or OH if unused. Where a SMILES comes first, the peptide text is derived from it. Bridges are numbered along the chain shown (N, C = ends). [ ]: non-standard residue; d: D form. The star is where a group is joined. βGlc = OC[C@H]1O[C@@H](*)[C@H](O)[C@@H](O)[C@@H]1O; Dmt = Cc1cc(O)cc(C)c1C[C@H](N)C(=O)O; dPen = CC(C)(S)[C@@H](N)C(=O)O; Aic = NC1(C(=O)O)Cc2ccccc2C1; CH2CH2 = C(C[*:2])[*:1]
READOUT TYPE: Efficacy

compound="Cc1cc(O)cc(C)c1C[C@H](N)C(=O)N[C@@H]1CSCCSC(C)(C)[C@H](C(=O)O)NC(=O)C2(Cc3ccccc3C2)NC1=O (H-[Dmt][dC][Aic][dPen]-OH; linker 2-4 via CH2CH2)" result=inactive
compound="Cc1cc(O)cc(C)c1C[C@H](N)C(=O)N[C@@H]1CSCCSC(C)(C)[C@H](C(=O)N[C@@H](CO[C@@H]2O[C@H](CO)[C@@H](O)[C@H](O)[C@H]2O)C(N)=O)NC(=O)C2(Cc3ccccc3C2)NC1=O (H-[Dmt][dC][Aic][dPen]S(βGlc)-NH2; linker 2-4 via CH2CH2)" result=inactive
compound="Cc1cc(O)cc(C)c1C[C@H](N)C(=O)N[C@@H]1CSCCSC(C)(C)[C@H](C(=O)N[C@@H](CO)C(=O)O)NC(=O)C2(Cc3ccccc3C2)NC1=O (H-[Dmt][dC][Aic][dPen]S-OH; linker 2-4 via CH2CH2)" result=inactive
compound="Cc1cc(O)cc(C)c1C[C@H](N)C(=O)N[C@@H]1CSCCSC(C)(C)[C@H](C(=O)N[C@@H](CO)C(N)=O)NC(=O)C2(Cc3ccccc3C2)NC1=O (H-[Dmt][dC][Aic][dPen]S-NH2; linker 2-4 via CH2CH2)" result=inactive
